Answer each item with its documented biodistribution kidney.
protocol.text: Biodistribution of 99mTc complexes in mice
Format: in vivo, Balb/c mice
conditions: 3 min
Answers are plain numbers, in % Injected dose.

{"columns": ["compound", "biodistribution kidney / % Injected dose"],
 "data": [
  ["O=C(O)CN(CCN(CC(=O)O)CC(=O)Nc1ccccc1O)CC(=O)Nc1ccccc1O [Compound 1]", 11.23]
]}

Record biodistribution kidney per entry; entries follow.
1. Nc1ccc(O)c(NC(=O)CN(CCN(CC(=O)O)CC(=O)Nc2cc(N)ccc2O)CC(=O)O)c1 [Compound 5]
2. CC(C)(C)c1ccc(O)c(NC(=O)CN(CCN(CC(=O)O)CC(=O)Nc2cc(C(C)(C)C)ccc2O)CC(=O)O)c1 [Compound 4]

1: 8.71; 2: 6.27

* * *

protocol.text: Biodistribution of 99mTc complexes in rats
Format: in vivo, Australian Albino Wistar Rats
conditions: rat, eyes, rats, 10 min, read-out: biodistribution eyes
Answer each item with its documented tissue uptake at 10 min.

Consider the following illustrative entries.
{"columns": ["chemical.structure", "tissue uptake at 10 min"],
 "data": [
  ["O=C(O)CN(CCN(CC(=O)O)CC(=O)Nc1ccc(Cl)cc1O)CC(=O)Nc1ccc(Cl)cc1O", "0.1 %ID/g"],
  ["CC(C)(C)c1ccc(O)c(NC(=O)CN(CCN(CC(=O)O)CC(=O)Nc2cc(C(C)(C)C)ccc2O)CC(=O)O)c1", "0.16 %ID/g"]
]}

// below: tissue uptake at 10 min requested for another compound
Return reported tissue uptake at 10 min; argument: O=C(O)CN(CCN(CC(=O)O)CC(=O)Nc1ccccc1O)CC(=O)Nc1ccccc1O
0.13 %ID/g

* * *

protocol.text: Biodistribution of 99mTc complexes in rats
Type: in vivo, Australian Albino Wistar Rats
conditions: rat, liver, rats, 30 sec, read-out: biodistribution liver
quantity.name: tissue uptake at 0.5 min (%ID/g)
Give bare numbers, in %ID/g.

Consider the following illustrative entries.
{"columns": ["chemical.structure", "reported.result"],
 "data": [
  ["O=C(O)CN(CCN(CC(=O)O)CC(=O)Nc1ccc(Cl)cc1O)CC(=O)Nc1ccc(Cl)cc1O", 4.61],
  ["CC(C)(C)c1ccc(O)c(NC(=O)CN(CCN(CC(=O)O)CC(=O)Nc2cc(C(C)(C)C)ccc2O)CC(=O)O)c1", 6.83]
]}

Return reported tissue uptake at 0.5 min; argument: O=C(O)CN(CCN(CC(=O)O)CC(=O)Nc1cc([N+](=O)[O-])ccc1O)CC(=O)Nc1cc([N+](=O)[O-])ccc1O
1.43

* * *

Answer each item with its documented tissue uptake at 0.05 h.
protocol.text: Biodistribution of 99mTc complexes in rats
Format: in vivo, Australian Albino Wistar Rats
conditions: rat, muscle, rats, 3 min, read-out: biodistribution muscle
Answers are plain numbers, in %ID/g.

{"columns": ["chemical.structure", "tissue uptake at 0.05 h, %ID/g"],
 "data": [
  ["CC(C)(C)c1ccc(O)c(NC(=O)CN(CCN(CC(=O)O)CC(=O)Nc2cc(C(C)(C)C)ccc2O)CC(=O)O)c1", 0.22]
]}

Record tissue uptake at 0.05 h per entry; entries follow.
1. O=C(O)CN(CCN(CC(=O)O)CC(=O)Nc1ccccc1O)CC(=O)Nc1ccccc1O
2. O=C(O)CN(CCN(CC(=O)O)CC(=O)Nc1ccc(Cl)cc1O)CC(=O)Nc1ccc(Cl)cc1O

0.26
0.2
